Values were extracted from PubChem BioAssay AID2546.

# ASSAY_METHOD_TEXT: VP16 counterscreen qHTS for inhibitors of ROR gamma transcriptional activity;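 further: Gal4-VP16 expression switched on by copper sulfate through the metallothionein promoter; nearly all actives have a fitted effect of over 50% in size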
# CONDITION_DESCRIPTION: Drosophila S2 Gal4-VP16 UAS-luciferase, luminescence, 20 h; series mostly up to 53.6 µM
Screen size: about 310,000 compounds; about 11,000 (3.5%) were called active. Roughly 8% stayed inconclusive and do not appear here. The call rests on the fitted dose curve; in most records, active means well fitted inhibition curve with a large enough effect; inconclusive means small, poorly fitted or top-dose-only effect, or effect the other way; inactive means flat fitted curve, though single readings scatter. The list comes from a sample in which actives are over-represented; it also holds close analogues and randomly drawn compounds.
Outcomes: active, inactive

> print(dat)
                                    compound  qualitative.label
 1            Oc1cccc(/C=N/Nc2ccc(Cl)nn2)c1O             active
 2      CN(Cc1ccccn1)Cc1nc(-c2ccc(Cl)cc2)no1           inactive
 3  COCCNc1ccc(-c2n[nH]c(=O)c3ccccc23)cc1[N+](=O)[O-]           inactive
 4  COc1cc2c(cc1OC)C(c1ccccc1Br)NC(=O)C2 (configuration not stated)           inactive
 5  CC(=O)N1c2ccc(S(=O)(=O)N3CCCC(C(=O)Nc4cccc(Cl)c4)C3)cc2CC1C (configuration not stated)           inactive
 6  CN1C(=O)/C(=C/c2ccc(C(=O)NC3CCCC3)cc2)Oc2ccccc21           inactive
 7       Cc1ccc(S(=O)(=O)Nc2ccc3ncccc3c2)cc1             active
 8  Cc1ccc(CSCC(N)C(=O)O)cc1 (configuration not stated)           inactive
 9  CCC(=O)/C(=C(/O)c1ccccc1)c1nc2ccccc2[nH]1           inactive
10  CCN1CC(CN(C)Cc2nc(-c3ccc(Cl)cc3)no2)CC1=O (configuration not stated)             active
11  Cc1ccc(OCC(=O)Nc2ccc(S(=O)(=O)Nc3ccccn3)cc2)cc1           inactive
12     O=C(Cc1nc2ccccc2[nH]c1=O)c1ccc(Cl)cc1           inactive
13  CCOC(=O)COn1c(=O)c(-c2ccc(OCC)cc2)[n+]([O-])c2ccccc21           inactive
14  CC(=O)Nc1ccc(S(=O)(=O)NNC(=O)CCc2ccccc2)cc1           inactive
15  CN(C)CCN(C(=O)C1=COCCO1)c1nc2ccc(Cl)cc2s1           inactive
16  COc1ccc(-c2nc(CS(=O)(=O)CC(=O)NCc3cccc(Br)c3)c(C)o2)cc1           inactive
17  O=C(/C(=C/c1cccc(Cl)c1)c1nc2ccccc2[nH]1)c1ccccc1             active
18  Cc1ccc(SCc2c(C(=O)N/N=C/C3CC=CCC3)nnn2-c2nonc2N)cc1 (configuration not stated)           inactive
19        CS(=O)(=O)N1CCN(CC(=O)NC2CCCC2)CC1           inactive
20  CC(=O)N1CCCc2cc(S(=O)(=O)N3CCCC(C(=O)N4CCN(c5cccc(Cl)c5)CC4)C3)ccc21 (configuration not stated)             active
21  CC(=O)N1CCCc2cc(S(=O)(=O)N3CCCC(C(=O)NCc4ccc(Cl)cc4)C3)ccc21 (configuration not stated)           inactive
22  Cc1ccc(SC(CC(=O)c2ccc(C(C)(C)C)cc2)C(=O)O)cc1 (configuration not stated)             active
